So I've got Ki readings for Adenosine receptor A2a (Rattus norvegicus, UniProt P30543), take a look.
METRIC: Ki (µM)

The examples below pair each entry with its known result.
{"columns": ["SMILES_DATA", "Ki (µM)"],
 "data": [
  ["CCOC(=O)c1c(CC)c(C(=O)SCC)c(C2CCC2)[n+](C)c1-c1ccccc1", 33.2],
  ["CCOC(=O)c1c(CC)c(C(=O)SCC)c(CC)[n+](C)c1C1CCCC1", 7.72],
  ["CCOC(=O)c1c(CCN2C(=O)c3ccccc3C2=O)c(C(=O)SCC)c(CC)[n+](C)c1-c1ccccc1", 2.15]
]}

(P) CCCOC(=O)c1c(CCC)c(C(=O)SCCCF)c(CC)[n+](C)c1-c1ccccc1
(Q) CCSC(=O)c1c(CC)c(C(=O)OCCF)c(-c2ccccc2)[n+](C)c1CC
Query string: Could you kindly indicate whether P or Q has the higher Ki value? Give the chosen item's label as your response.
Result string: Q
